The origin of these recorded values is paper PMC12040169.

test: in vitro; details: human, hela cells, % viability
Measurement type: viability at 28.5 h, 10 µM (%)
Entry rule: numbers only, all in %.

Consider the reported viability at 28.5 h, 10 µM for these molecules:
>  <Molecule>
OCCN(Cc1ccncc1)CC1(c2ccc(Cl)cc2)CC1

>  <viability at 28.5 h, 10 µM / %>
90.7

$$$$
>  <Molecule>
CC(C)CN(CC(N)=O)CC(=O)NC1(c2ccccc2)CCC1 [CBK066883T]

>  <viability at 28.5 h, 10 µM / %>
88.9

$$$$
>  <Molecule>
Cc1nc2cc(-c3nccn3C)nn2c(N2CCN(c3ccc4c(c3)OCCO4)CC2)c1C

>  <viability at 28.5 h, 10 µM / %>
90.4

$$$$
>  <Molecule>
Cn1c(CSCc2ccccc2F)nnc1SCC(=O)c1ccc(Br)cc1

>  <viability at 28.5 h, 10 µM / %>
92.3

$$$$
>  <Molecule>
CCOC(=O)Nc1ccsc1C(=O)OC

>  <viability at 28.5 h, 10 µM / %>
88.6

$$$$

Identify the reported viability at 28.5 h, 10 µM for the following entry. CCOC(=O)C(CNC(=O)c1c(CC)noc1C)Cc1ccccc1 (stereo not shown)
90.8

Return reported viability at 28.5 h, 10 µM. Input molecule: O=C(CN1CCCC1)N1CCCC1c1nc2ccccc2[nH]1 (stereo not shown)
89.4

###

assay: in vitro; details: human, hela cells, % viability
Examples of molecules with documented viability at 28.5 h, 10 µM follow.
Express the result in % but write the number alone.

Please review the following examples before continuing.
>  <Molecule>
Cc1oc(CSCc2cc(C(=O)O)c(C)o2)cc1C(=O)O

>  <Display unit>
%

>  <viability at 28.5 h, 10 µM>
90.7

$$$$
>  <Molecule>
COc1ccc([C@@]23CC[C@@H](NS(=O)(=O)Cc4ccccc4)C[C@@H]2N(C)CC3)cc1OC [CBK056665T]

>  <Display unit>
%

>  <viability at 28.5 h, 10 µM>
91.4

$$$$
>  <Molecule>
Cc1ccc(S(=O)(=O)N2/C(=C\COc3ccc(Cl)cc3Cl)C(N3CCOCC3)c3ccccc32)cc1 (stereo not drawn)

>  <Display unit>
%

>  <viability at 28.5 h, 10 µM>
87.6

$$$$
>  <Molecule>
CC(=O)Nc1ccc(Oc2cc(C)nc(C3CCCNC3)c2)cc1 (stereo not drawn)

>  <Display unit>
%

>  <viability at 28.5 h, 10 µM>
88.1

$$$$
>  <Molecule>
Cc1cc(Cl)c(S(=O)(=O)N2CCN(c3ccccn3)CC2)cc1OCC(=O)NC1CCCCC1

>  <Display unit>
%

>  <viability at 28.5 h, 10 µM>
90.7

$$$$

Report viability at 28.5 h, 10 µM for COc1ccc(CNC(=O)c2cc(O)nc3ccccc23)cc1OC
90.2

###

assay: in vitro; details: human, hela cells, % viability
Below is a list of entries, each paired with its recorded viability at 28.5 h, 10 µM value.
Entry rule: numbers only, all in %.

Below are worked cases with known answers.
>  <Compound>
COCCN1CCN(c2cncc(-c3ccc(O)cc3)n2)CC1 [CBK126951T]

>  <Measurement type>
viability at 28.5 h, 10 µM

>  <Data value>
93.6

$$$$
>  <Compound>
CCCOCCCn1ccc2nc(OC)c(C#N)cc2c1=O [CBK307162]

>  <Measurement type>
viability at 28.5 h, 10 µM

>  <Data value>
88

$$$$
>  <Compound>
COC(=O)c1ccc(/C=C/C2=CCN(C)CC2)cc1 [CBK283744]

>  <Measurement type>
viability at 28.5 h, 10 µM

>  <Data value>
94.5

$$$$
>  <Compound>
CCCC(=O)Nc1nnc(-c2ccc(C)cc2C)o1 [CBK287700]

>  <Measurement type>
viability at 28.5 h, 10 µM

>  <Data value>
107

$$$$
>  <Compound>
CSCCC(NC(=O)NCCc1ccccc1)c1nnc2ccccn12 (centres unmarked) [CBK304417]

>  <Measurement type>
viability at 28.5 h, 10 µM

>  <Data value>
102

$$$$
>  <Compound>
Cc1nn(Cc2cccc3ccccc23)c(C)c1NC(=O)c1ccncc1 [CBK269990]

>  <Measurement type>
viability at 28.5 h, 10 µM

>  <Data value>
93.4

$$$$
>  <Compound>
CN(C)CCN(C)Cc1ccc([N+](=O)[O-])cc1 [CBK261728]

>  <Measurement type>
viability at 28.5 h, 10 µM

>  <Data value>
110

$$$$
>  <Compound>
CC1(C)C[C@H](NC(=O)c2ccccc2)[C@@]2(CCC(=O)NC3CC3)CC[C@](C)(O)C[C@@H]12 [CBK289045]

>  <Measurement type>
viability at 28.5 h, 10 µM

>  <Data value>
92.6

$$$$
>  <Compound>
O=C(Nc1ccc(Cn2cncn2)cc1)C1CC2C=CC1C21CC1 (centres unmarked) [CBK281399]

>  <Measurement type>
viability at 28.5 h, 10 µM

>  <Data value>
88.2

$$$$
>  <Compound>
CNCC(=O)N(CCc1cc(C(F)(F)F)cc(C(F)(F)F)c1)c1ccc2c(c1)OCO2 [CBK001038T]

>  <Measurement type>
viability at 28.5 h, 10 µM

>  <Data value>
120

$$$$

Return viability at 28.5 h, 10 µM for the following compound: O=C(CSc1ncnc2scc(-c3ccc(Cl)cc3)c12)Nc1nsc(-c2ccccc2)n1 [CBK266473]
96.6

Identify measured viability at 28.5 h, 10 µM associated with O=C(O)COCC(=O)N1C[C@@H]2OCC(=O)N(Cc3ccccc3)[C@@H]2C1 [CBK289652]
101

Provide only the value of recorded viability at 28.5 h, 10 µM for CC(Oc1ccc(Cl)cc1Cl)C(=O)NCCc1cccc(Cl)c1 (centres unmarked) [CBK265489]
84.2

Specify reported viability at 28.5 h, 10 µM for the compound shown: CCOC(=O)CN1CC(O)CC1c1cccc(C(F)(F)F)c1 (centres unmarked) [CBK304169]
97.9

Specify measured viability at 28.5 h, 10 µM for Cc1cccc(C)c1NC(=O)CC1Sc2ccccc2NC1=O (centres unmarked) [CBK267160] .
97

Specify measured viability at 28.5 h, 10 µM for COc1ccc(C2CC(c3c(-c4ccccc4)c4cc(Cl)ccc4[nH]c3=O)=NN2C(=O)CCC(=O)O)cc1OC (centres unmarked) [CBK296128] .
103

###

assay: in vitro; conditions: human, hela cells, % viability
Measurement type: viability at 28.5 h, 10 µM (%)
Enter your answer as a number in %; do not include the unit.

For orientation, consider the following solved cases.
>  <Compound>
O=C1N=C(NC2CCCCCC2)SC1CC(=O)N1CCCC1 (stereo not shown) [CBK063342]

>  <Data value>
95.3

$$$$
>  <Compound>
Cc1cc(NC(=O)c2cccs2)nc2c1c(=O)oc1ccccc12 [CBK287439]

>  <Data value>
91.8

$$$$
>  <Compound>
COc1nccnc1-c1ccc(SC)cc1 [CBK106795]

>  <Data value>
95

$$$$
>  <Compound>
Cc1ccc2c(c1)CC(=O)NC21CCN(Cc2cccc(Br)c2)CC1 [CBK039392]

>  <Data value>
94.7

$$$$
>  <Compound>
O=C(O)c1ccc(CSc2nc(-c3ccccc3)cc(C(F)(F)F)n2)o1 [CBK269514]

>  <Data value>
105

$$$$
>  <Compound>
CSCCCNC(=O)N(Cc1cccnc1)Cc1ccc2c(c1)OCO2 [CBK159426]

>  <Data value>
92.7

$$$$
>  <Compound>
O=C(CCSc1ccc(Cl)cc1)NCCN1CCOCC1 [CBK269352]

>  <Data value>
98.2

$$$$
>  <Compound>
CC(C)C(=O)N1CC2(CCN(CC3COc4ccccc4O3)CC2)c2ccccc21 (stereo not shown) [CBK143946]

>  <Data value>
98.2

$$$$

Quick one: give measured viability at 28.5 h, 10 µM for c1ccc(CNc2nc(-c3ccco3)cn3ccnc23)cc1 [CBK037955]
90.6

Look up viability at 28.5 h, 10 µM of N#C/C(=C/c1cc(Cl)c(OCc2ccc([N+](=O)[O-])cc2)c(Cl)c1)c1ccc(C(=O)O)cc1 [CBK269098] and report it.
105

###

test: in vitro; conditions: human, hela cells, % viability
Measurement type: viability at 28.5 h, 10 µM (%)
Expressed in %, but write only the number.

Identify the reported viability at 28.5 h, 10 µM for the following entry. Cc1cccc(NC(=S)N/N=C/c2sccc2C)c1
104

Return value of viability at 28.5 h, 10 µM for input CN1CCCN(c2ccc(NS(=O)(=O)c3cccc(F)c3)c3ccccc23)CC1 [CBK200010C] , no commentary.
84.9

Item O=S(=O)(c1c(F)cccc1F)N1CCN(Cc2ccc3c(c2)OCO3)CC1 : provide viability at 28.5 h, 10 µM
91.5

Look up and state reported viability at 28.5 h, 10 µM for O=C(O)C1CCC1C(=O)N1CCN(c2nc3ccc(Cl)cc3s2)CC1 (stereo not drawn)
92.4

Please report viability at 28.5 h, 10 µM for the following compound: Cc1ccc(S(=O)(=O)NCC23C=CC(O2)C2C(=O)N(Cc4ccccc4)C(=O)C23)cc1 (stereo not drawn)
107

For CCN(CC)C(=O)CNS(=O)(=O)c1ccc(C)cc1 , write its viability at 28.5 h, 10 µM.
103
